The following compounds are listed with their measured SETFA damage score (0-5) values.
test system: Setaria faberi (SETFA); test: Post-emergence herbicidal activity, Setaria faberi; format: in vivo; parameters: key: 5=total damage to plant; 0=no damage to plant; conditions: 1000 g/ha, evaluated after 13 days, Test 2b
OBSERVED_PROPERTY: SETFA damage score (0-5)

INSERT INTO measurements (smiles_record, assayed_system, experimental_value) VALUES
  ('Cc1nc(-c2cncc(OC(F)F)c2)ccc1NC(=O)OC(C)(C)C', 'Setaria faberi (SETFA)', 5),
  ('CC(C)(C)OC(=O)Nc1ccc(-c2cncnc2)nc1C(F)(F)F', 'Setaria faberi (SETFA)', 5),
  ('COc1cncc(-c2ccc(NC(=O)OC(C)(C)C)c(C)n2)c1', 'Setaria faberi (SETFA)', 3),
  ('Cc1cncc(-c2ccc(N(C)C(=O)OC(C)(C)C)c(C(F)(F)F)n2)c1', 'Setaria faberi (SETFA)', 3),
  ('CC(C)OC(=O)Nc1ccc(-c2cncc(F)c2)nc1C(F)(F)F', 'Setaria faberi (SETFA)', 5),
  ('COc1cncc(-c2ccc(N(C)C(=O)OC(C)(C)C)c(C(F)(F)F)n2)c1', 'Setaria faberi (SETFA)', 3),
  ('CCN(C(=O)OC(C)(C)C)c1ccc(-c2cncc(F)c2)nc1C(F)(F)F', 'Setaria faberi (SETFA)', 4),
  ('Cc1nc(-c2cncnc2)ccc1NC(=O)OC(C)(C)C', 'Setaria faberi (SETFA)', 4),
  ('CN(C(=O)OC(C)(C)C)c1ccc(-c2cncc(F)c2)nc1C(F)(F)F', 'Setaria faberi (SETFA)', 5);

---

Test system: Echinochloa crus-galli (ECHCG)
Assay: Post-emergence herbicidal activity, Echinochloa crus-galli
Assay type: in vivo
Details: 1000 g/ha, evaluated after 13 days
Method: Seeds of a variety of test species were sown in standard soil in pots: Triticum aestivium (TRZAW), Avena fatua (AVEFA), Alopecurus myosuroides (ALOMY), Echinochloa crus-galli (ECHCG), Lolium perenne (LOLPE), Zea Mays (ZEAMX), Abutilon theophrasti (ABUTH), Amaranthus retroflexus (AMARE) and Setaria faberi (SETFA). […] After 13 days, the test was evaluated (5=total damage to plant; 0=no damage to plant).
OBSERVED_PROPERTY: Control of ECHCG after post-emergence application (score 0-5)

INSERT INTO measurements (smiles_record, assayed_system, experimental_value) VALUES
  ('O=C(Nc1ccc(-c2cncc(F)c2)nc1C(F)(F)F)N1CCS(=O)(=O)C1', 'Echinochloa crus-galli (ECHCG)', 4),
  ('C#CCOC(=O)Nc1ccc(-c2cncc(F)c2)nc1C(F)(F)F', 'Echinochloa crus-galli (ECHCG)', 4),
  ('CSCCCOC(=O)Nc1ccc(-c2cncc(F)c2)nc1C(F)(F)F', 'Echinochloa crus-galli (ECHCG)', 5),
  ('CC(C)(C)NC(=O)Nc1ccc(-c2cncc(F)c2)nc1C(F)(F)F', 'Echinochloa crus-galli (ECHCG)', 5),
  ('CC(C)(C)OC(=O)Nc1ccc(-c2cncc(F)c2)nc1C#N', 'Echinochloa crus-galli (ECHCG)', 5),
  ('CC(C)(C)OC(=O)Nc1ccc(-c2cncc(C#N)c2)nc1C(F)(F)F', 'Echinochloa crus-galli (ECHCG)', 4),
  ('O=C(Nc1ccc(-c2cncc(F)c2)nc1C(F)(F)F)OCc1ccc(Cl)cc1', 'Echinochloa crus-galli (ECHCG)', 4),
  ('CN1CCN(c2ccc(-c3cncc(F)c3)nc2C(F)(F)F)C1=O', 'Echinochloa crus-galli (ECHCG)', 4),
  ('C#CCNC(=O)Nc1ccc(-c2cncc(F)c2)nc1C(F)(F)F', 'Echinochloa crus-galli (ECHCG)', 4);

---

tested on: Echinochloa crus-galli (ECHCG); assay: Post-emergence herbicidal activity, Echinochloa crus-galli; assay type: in vivo; details: 1000 g/ha, evaluated after 13 days
OBSERVED_PROPERTY: Control of ECHCG after post-emergence application (score 0-5)

INSERT INTO results (smiles_record, experimental_value) VALUES
  ('CC(C)(C)OC(=O)Nc1ccc(-c2cncc(F)c2)nc1-c1ccccc1', 1),
  ('CN(C(=O)OC(C)(C)C)c1ccc(-c2cc(F)c[n+]([O-])c2)nc1C(F)(F)F', 4),
  ('CC(C)NC(=O)Nc1ccc(-c2cncnc2)nc1C(F)(F)F', 4),
  ('COCCNC(=O)Nc1ccc(-c2cncc(F)c2)nc1C(F)(F)F', 5),
  ('CN(C(N)=O)c1ccc(-c2cncc(F)c2)nc1C(F)(F)F', 4),
  ('CON(C)C(=O)Nc1ccc(-c2cncc(F)c2)nc1C(F)(F)F', 3),
  ('O=C(Nc1ccc(-c2cncc(F)c2)nc1C(F)(F)F)OCc1ccccc1', 5),
  ('CN1CCN(C(=O)Nc2ccc(-c3cncc(F)c3)nc2C(F)(F)F)CC1', 4),
  ('O=C(Nc1ccc(-c2cncc(F)c2)nc1C(F)(F)F)N1CCCCC1', 4);

---

system: Zea Mays (ZEAMX); experiment: Pre-emergence herbicidal activity, Zea Mays; format: in vivo; parameters: key: 5=total damage to plant; 0=no damage to plant; conditions: 1000 g/ha, evaluated after 13 days, Test 1b
# ZEAMX damage score (0-5) >= 2 gives Criterion met, anything below gives Criterion not met

INSERT INTO assay_data (smiles_record, category_label) VALUES
  ('CC(C)OC(=O)Nc1ccc(-c2cncc(F)c2)nc1C(F)(F)F', 'Criterion met'),
  ('CC(C)(C)OC(=O)Nc1ccc(-c2cncc(F)c2)nc1C(F)(F)F', 'Criterion met'),
  ('Cc1nc(-c2cccnc2)ccc1NC(=O)OC(C)(C)C', 'Criterion met'),
  ('COc1cncc(-c2ccc(NC(=O)OC(C)(C)C)c(C)n2)c1', 'Criterion not met'),
  ('CN(C(=O)OC(C)(C)C)c1ccc(-c2cncc(C(F)(F)F)c2)nc1C(F)(F)F', 'Criterion not met'),
  ('CC(C)(C)OC(=O)Nc1ccc(-c2cncnc2)nc1C(F)(F)F', 'Criterion met'),
  ('CCN(C(=O)OC(C)(C)C)c1ccc(-c2cncc(F)c2)nc1C(F)(F)F', 'Criterion not met'),
  ('Cc1nc(-c2cncc(C(F)(F)F)c2)ccc1NC(=O)OC(C)(C)C', 'Criterion not met'),
  ('Cc1cncc(-c2ccc(N(C)C(=O)OC(C)(C)C)c(C(F)(F)F)n2)c1', 'Criterion not met'),
  ('CN(C(=O)OC(C)(C)C)c1ccc(-c2cncc(F)c2)nc1C(F)(F)F', 'Criterion met'),
  ('Cc1nc(-c2cncc(F)c2)ccc1NC(=O)OC(C)(C)C', 'Criterion met'),
  ('CCOC(=O)Nc1ccc(-c2cncc(F)c2)nc1C(F)(F)F', 'Criterion met'),
  ('COc1cncc(-c2ccc(N(C)C(=O)OC(C)(C)C)c(C(F)(F)F)n2)c1', 'Criterion not met'),
  ('Cc1nc(-c2cncnc2)ccc1NC(=O)OC(C)(C)C', 'Criterion met'),
  ('CN(C(=O)OC(C)(C)C)c1ccc(-c2cccnc2)nc1C(F)(F)F', 'Criterion not met'),
  ('CN(C(=O)OC(C)(C)C)c1ccc(-c2cncnc2)nc1C(F)(F)F', 'Criterion met'),
  ('Cc1nc(-c2cncc(C#N)c2)ccc1NC(=O)OC(C)(C)C', 'Criterion met');

---

tested on: Avena fatua (AVEFA); experiment: Post-emergence herbicidal activity, Avena fatua; type: in vivo; conditions: 1000 g/ha, evaluated after 13 days
The following molecules are listed with their measured Control of AVEFA after post-emergence application (score 0-5) values.
OBSERVED_PROPERTY: Control of AVEFA after post-emergence application (score 0-5)

INSERT INTO assay_data (molecule, experimental_value) VALUES
  ('O=C(Nc1ccc(-c2cncc(F)c2)nc1C(F)(F)F)N1CCCC1', 2),
  ('CN(C(=O)OC(C)(C)C)c1ccc(-c2cncc(C#N)c2)nc1C(F)(F)F', 2),
  ('O=C(Nc1ccc(-c2cncc(F)c2)nc1C(F)(F)F)N1CC[S+]([O-])C1 (centres unmarked)', 4),
  ('C=CCOC(=O)Nc1ccc(-c2cncc(F)c2)nc1C(F)(F)F', 4),
  ('O=C(Nc1ccc(-c2cncc(F)c2)nc1C(F)(F)F)OC1CCCCC1', 3);

---

Tested on: Avena fatua (AVEFA)
Test: Post-emergence herbicidal activity, Avena fatua
Type: in vivo
Details: 1000 g/ha, evaluated after 13 days
Description: Seeds of a variety of test species were sown in standard soil in pots: Triticum aestivium (TRZAW), Avena fatua (AVEFA), Alopecurus myosuroides (ALOMY), Echinochloa crus-galli (ECHCG), Lolium perenne (LOLPE), Zea Mays (ZEAMX), Abutilon theophrasti (ABUTH), Amaranthus retroflexus (AMARE) and Setaria faberi (SETFA). […] After 13 days, the test was evaluated (5=total damage to plant; 0=no damage to plant).
OBSERVED_PROPERTY: Control of AVEFA after post-emergence application (score 0-5)

INSERT INTO assay_data (molecule, experimental_value) VALUES
  ('CN(C(=O)N1CCOCC1)c1ccc(-c2cncc(F)c2)nc1C(F)(F)F [Compound B67]', 2),
  ('O=C(Nc1ccc(-c2cncnc2)nc1C(F)(F)F)N1CCOCC1 [Compound B55]', 2),
  ('CC(C)COC(=O)Nc1ccc(-c2cncc(F)c2)nc1C(F)(F)F [Compound B43]', 4),
  ('CC(C)(C)OC(=O)N(CC1CC1)c1ccc(-c2cncc(F)c2)nc1C(F)(F)F [Compound B10]', 3),
  ('CC(C)(C#N)OC(=O)Nc1ccc(-c2cncc(F)c2)nc1C(F)(F)F [Compound B118]', 3),
  ('C#CCNC(=O)Nc1ccc(-c2cncc(F)c2)nc1C(F)(F)F [Compound B41]', 3),
  ('CN(C(=O)OC(C)(C)C)c1ccc(-c2cc(F)c[n+]([O-])c2)nc1C(F)(F)F [Compound B1]', 4),
  ('COCCNC(=O)Nc1ccc(-c2cncc(F)c2)nc1C(F)(F)F [Compound B60]', 2),
  ('O=C(Nc1ccc(-c2cncc(F)c2)nc1C(F)(F)F)N1CCCCC1 [Compound B51]', 3),
  ('CC(C)(C)OC(=O)Nc1ccc(-c2cncc(F)c2)nc1-c1ccccc1 [Compound B112]', 1),
  ('CC(C)(C)NC(=O)Nc1ccc(-c2cncc(F)c2)nc1C(F)(F)F [Compound B65]', 3),
  ('CCCOC(=O)Nc1ccc(-c2cncc(F)c2)nc1C(F)(F)F [Compound B42]', 4),
  ('CSc1cncc(-c2ccc(NC(=O)OC(C)(C)C)c(C)n2)c1 [Compound B12]', 2),
  ('CC(C)(C)OC(=O)Nc1ccc(-c2cncc(C#N)c2)nc1C(F)(F)F [Compound B7]', 4),
  ('N#CCCOC(=O)Nc1ccc(-c2cncc(F)c2)nc1C(F)(F)F [Compound B62]', 3),
  ('CC(C)(C)OC(=O)N(Cc1ccc(F)cc1F)c1ccc(-c2cncc(F)c2)nc1C(F)(F)F [Compound B3]', 2),
  ('COC(=O)c1nc(-c2cncc(F)c2)ccc1NC(=O)OC(C)(C)C [Compound B77]', 1),
  ('C=CCN(C(=O)OC(C)(C)C)c1ccc(-c2cncnc2)nc1C(F)(F)F [Compound B35]', 2);
